Recorded Relative % to native ligand, one value per entry.
target: human glucagon receptor (GCGR), expressed on CHO-K1 cells (human, UniProt P47871 26-477); assay: cell-based or functional assay
Sequence (P47871 26-477): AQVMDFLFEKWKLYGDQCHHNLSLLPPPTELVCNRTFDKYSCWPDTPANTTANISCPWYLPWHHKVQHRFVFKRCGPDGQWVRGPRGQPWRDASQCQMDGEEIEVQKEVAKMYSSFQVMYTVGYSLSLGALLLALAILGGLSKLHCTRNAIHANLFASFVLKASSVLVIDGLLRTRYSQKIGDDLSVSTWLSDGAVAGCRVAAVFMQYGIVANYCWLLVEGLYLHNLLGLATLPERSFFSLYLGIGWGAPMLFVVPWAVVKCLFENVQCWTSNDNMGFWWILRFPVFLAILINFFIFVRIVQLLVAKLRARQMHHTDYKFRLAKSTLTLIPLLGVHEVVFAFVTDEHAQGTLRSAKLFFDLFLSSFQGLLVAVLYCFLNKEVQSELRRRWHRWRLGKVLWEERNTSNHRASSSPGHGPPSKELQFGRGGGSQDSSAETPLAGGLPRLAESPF
Numbered stars: 1 amine (or outer) side, 2 acyl side, 3 side chain; on linkers, the order of the positions; unused ones are H or OH. Square brackets hold non-standard residues; d marks the D form. Side chains are listed from the residue outwards. Ends that are not written are not given here. * marks the point of attachment. C18 = C18 fatty acid (C16-C22 fatty acids conjugated via γGlu/8-amino-3,6-dioxaoctanoic acid spacers); methoxinine = methoxinine (m*), COCC[C@H](N[*:1])C(=O)[*:2]; Biotin = O=C1N[C@H]2[C@H](CS[C@H]2CCCCC(=O)*)N1; γGlu = O=C(O)[C@H](CCC(=O)[*:2])N[*:1]; AEEA = NCCOCCOCC(=O)O; Aib = CC(C)(N)C(=O)O
Your answer should be a plain number; it is taken to be in %.

Y[Aib]QGTFTSDYSK([AEEA-AEEA-γGlu-C18])LLDKMMQRDFVQWLLEGGPSSGAPPPS-NH2 (not fully specified (residue 16); printed as YAibQGT FTSDY SK*LLD B*MMQR DFVQW LLEGG PSSGA PPPS) [SEQ ID NO. 86] : 142
Y[Aib]QGTFTSDYSK([AEEA-AEEA-γGlu-C18])LLDYMMQRDFVKWLLEGGPSSGAPPPS-NH2 (not fully specified (residue 24); printed as YAibQGT FTSDY SK*LLD YMMQR DFVB*W LLEGG PSSGA PPPS) [SEQ ID NO. 89] : 45
Y[Aib]QGTFTSDYSK([AEEA-AEEA-γGlu-C18])YLDYMMQRDFVK(Biotin)WLLEGGPSSGAPPPS (ends and bridges not checked) [SEQ ID NO. 97] : 30
Y[Aib]QGTFTSDYSK([AEEA-AEEA-γGlu-C18])LLDQQAQRDFVQWLLEGGPSSGAPPPS-NH2 [SEQ ID NO. 95] : 14
Y[Aib]QGTFTSDYSK([AEEA-AEEA-γGlu-C18])LLDYMMQ[Aib]DFVQYLLEGGPSSGAPPPS-NH2 [SEQ ID NO. 85] : 38

Moving on to the next binder.
Look at this binder and give its reported Relative % to native ligand. Y[Aib]QGTFTSDYSK([AEEA-AEEA-γGlu-C18])LLDY[methoxinine][methoxinine]QRDFVQWLLEGGPSSGAPPPS-NH2 [SEQ ID NO. 96] 17

Data origin, for the record: patent US20250296960A1
